- Tested on: SNB-19
- TEST NAME: Antitumor activity against human SNB19 cells after 48 hrs
- Type: functional
- CONDITION LABEL: SNB-19, 48 h
Here, each record is paired with measured GI50 data.
Write the value in nM as a bare number.

Query block: Given the entry COc1cc(/C(C#N)=C/c2ccc3ccccc3n2)cc(OC)c1OC , report its measured GI50.
Result block: 578

Query block: Given the entry COc1cc(OC)cc(/C(C#N)=C/c2ccc3ccccc3n2)c1 , report its measured GI50.
Result block: 728

Query block: Given the entry COc1cc(OC)cc(/C(C#N)=C/c2cnc3ccccc3c2)c1 , report its measured GI50.
Result block: 614

Query block: Given the entry COc1cc(/C(C#N)=C/c2cnc3ccccc3c2)cc(OC)c1OC , report its measured GI50.
Result block: 5230

* * *

Here, each record is paired with measured GI50 data.
- Test system: NCI-H23
- TEST NAME: Antitumor activity against human NCI-H23 cells after 48 hrs
- Type: functional
- CONDITION LABEL: NCI-H23, 48 h
Write the value in nM as a bare number.

Here's what some known entries look like.
CHEMICAL STRING: COc1cc(OC)cc(/C(C#N)=C/c2ccc3ccccc3n2)c1
TESTED SYSTEM: NCI-H23
GI50 (nM): 983

CHEMICAL STRING: COc1cc(/C(C#N)=C/c2cnc3ccccc3c2)cc(OC)c1OC
TESTED SYSTEM: NCI-H23
GI50 (nM): 2930

CHEMICAL STRING: COc1cc(OC)cc(/C(C#N)=C/c2cnc3ccccc3c2)c1
TESTED SYSTEM: NCI-H23
GI50 (nM): 747

We next turn to a different molecule, shown below.
Query block: Given the entry COc1cc(/C(C#N)=C/c2ccc3ccccc3n2)cc(OC)c1OC , report its measured GI50.
Result block: 751

* * *

- TEST NAME: Antitumor activity against human RPMI8226 cells after 48 hrs
- Format: functional
- CONDITION LABEL: RPMI-8226, 48 h
MEASURED METRIC: GI50 (nM)
Write the value in nM as a bare number.

Here's what some known entries look like.
CHEMICAL STRING: COc1cc(/C(C#N)=C/c2ccc3ccccc3n2)cc(OC)c1OC
MEASUREMENT UNIT: nM
ASSAY RESULT: 297
--
CHEMICAL STRING: COc1cc(OC)cc(/C(C#N)=C/c2ccc3ccccc3n2)c1
MEASUREMENT UNIT: nM
ASSAY RESULT: 433
--
CHEMICAL STRING: COc1cc(OC)cc(/C(C#N)=C/c2cnc3ccccc3c2)c1
MEASUREMENT UNIT: nM
ASSAY RESULT: 332

We next turn to a different molecule, shown below.
Query block: Given the entry COc1cc(/C(C#N)=C/c2cnc3ccccc3c2)cc(OC)c1OC , report its measured GI50.
Result block: 2060

* * *

Here, each record is paired with measured GI50 data.
- Tested on: TK-10
- TEST NAME: Antitumor activity against human TK10 cells after 48 hrs
- Format: functional
- CONDITION LABEL: TK-10, 48 h
Write the value in µM as a bare number.

Query block: Given the entry COc1cc(OC)cc(/C(C#N)=C/c2ccc3ccccc3n2)c1 , report its measured GI50.
Result block: 3.28

Query block: Given the entry COc1cc(/C(C#N)=C/c2cnc3ccccc3c2)cc(OC)c1OC , report its measured GI50.
Result block: 2.55

Query block: Given the entry COc1cc(OC)cc(/C(C#N)=C/c2cnc3ccccc3c2)c1 , report its measured GI50.
Result block: 17.7

Query block: Given the entry COc1cc(/C(C#N)=C/c2ccc3ccccc3n2)cc(OC)c1OC , report its measured GI50.
Result block: 4.69
